Below is a list of entries, each paired with its recorded IC50 value.
- Tested on: recombinant human GST-SYK (Homo sapiens, UniProt P43405)
- Construct: purchased Carna Biosciences 08-176
- Measurement protocol: Homogeneous Time-Resolved Fluorescence (HTRF) assay for the recombinant human Syk enzyme
- Type: biochemical
- Test settings: GST-hSYK 5 pM, ATP 25 μM, 10-dose titration 10 μM to 0.508 nM; read-out: rhSYK Activity (IC50 rating)

>  <Compound>
Cc1nc(Nc2cc(N[C@@H]3CCCC[C@@H]3N)cnc2C(N)=O)ccc1-c1ccc(C)c2ncccc12

>  <IC50>
< 10 nM

$$$$
>  <Compound>
COc1ccc(-c2ccc(Nc3cc(N[C@@H]4CCCC[C@@H]4N)cnc3C(N)=O)nc2C)cc1OC

>  <IC50>
< 10 nM

$$$$
>  <Compound>
Cc1cc(C)nc(Nc2cc(NC(C(N)=O)C(C)C)cnc2C(N)=O)c1 (stereo not drawn)

>  <IC50>
10 to 100 nM

$$$$
